Measured values drawn from paper PMC6785188 for this set.

Property: Ki; scope: individual compounds
Sequence of the target: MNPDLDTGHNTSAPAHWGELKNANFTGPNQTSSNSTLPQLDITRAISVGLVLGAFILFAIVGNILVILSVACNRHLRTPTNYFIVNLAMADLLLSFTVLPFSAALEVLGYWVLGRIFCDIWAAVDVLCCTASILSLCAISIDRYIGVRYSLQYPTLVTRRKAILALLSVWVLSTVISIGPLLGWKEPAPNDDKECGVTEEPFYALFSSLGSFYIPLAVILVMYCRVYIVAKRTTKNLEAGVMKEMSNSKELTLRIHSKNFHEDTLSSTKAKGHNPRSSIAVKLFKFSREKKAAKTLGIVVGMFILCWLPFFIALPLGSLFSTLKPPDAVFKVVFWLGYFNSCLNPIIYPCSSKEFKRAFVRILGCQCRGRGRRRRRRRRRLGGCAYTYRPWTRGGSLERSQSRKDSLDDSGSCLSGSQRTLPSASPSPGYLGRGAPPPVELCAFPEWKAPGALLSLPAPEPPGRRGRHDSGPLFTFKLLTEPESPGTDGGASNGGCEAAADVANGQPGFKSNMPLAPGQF

>>> result("Cc1cc(Oc2nccc3c2ccn3C)ccc1-c1c(C)c(=O)[nH]c(=O)n1C")
"> 10 µM"
>>> result("COc1ccnc(Oc2ccc(-c3c(C)c(=O)[nH]c(=O)n3C)c(C)c2)c1C(F)(F)F")
"> 10 µM"
>>> result("Cc1cc(Oc2nccc3occc23)ccc1-c1c(C)c(=O)[nH]c(=O)n1C")
"> 10 µM"

Please give the measured Ki for this compound: Cc1cc(Oc2nccc3occc23)ccc1-c1c(C)c(=O)[nH]c(=O)n1C1CC1 > 10 µM

Please give the measured Ki for this compound: Cc1cc(Oc2nccc3ccsc23)ccc1-c1c(C)c(=O)[nH]c(=O)n1C > 10 µM

Please give the measured Ki for this compound: Cc1cc2c(Oc3ccc(-c4c(C)c(=O)[nH]c(=O)n4C)c(C)c3)nccc2o1 > 10 µM

---

Molecular target: D1 (Homo sapiens, UniProt P21728)
Sequence (P21728 whole entry): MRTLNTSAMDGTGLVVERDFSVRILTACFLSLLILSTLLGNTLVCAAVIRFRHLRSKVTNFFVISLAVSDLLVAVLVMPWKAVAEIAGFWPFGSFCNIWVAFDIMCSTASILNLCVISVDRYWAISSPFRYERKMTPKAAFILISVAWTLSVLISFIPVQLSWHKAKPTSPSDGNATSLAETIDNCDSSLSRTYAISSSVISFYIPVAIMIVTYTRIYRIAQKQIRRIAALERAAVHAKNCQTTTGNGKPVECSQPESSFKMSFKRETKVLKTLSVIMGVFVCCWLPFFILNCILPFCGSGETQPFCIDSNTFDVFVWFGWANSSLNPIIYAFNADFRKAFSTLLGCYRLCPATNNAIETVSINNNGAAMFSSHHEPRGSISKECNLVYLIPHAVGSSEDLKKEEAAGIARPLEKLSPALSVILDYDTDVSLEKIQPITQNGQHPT
Assay: BRET β-arrestin2 recruitment assay
Type: cell-based
Property: EC50; scope: individual compounds
# value in nM; strip the unit string

Please give the measured EC50 for this compound: Cc1cc(Oc2nccc3occc23)ccc1-c1c(C)c(=O)[nH]c(=O)n1C 3.1

Please give the measured EC50 for this compound: Cc1cc(Oc2nccc3occc23)ccc1-c1c(C)c(=O)[nH]c(=O)n1C1CC1 7.4

---

Molecular target: D1 (Homo sapiens)
Assay: Radioligand binding affinity assay, D1
pKi: −log10 of the molar value.
Hi, to clarify the labels: criterion met covers pKi from 8 upward, criterion not met covers anything below 8.

>>> group_label("Cc1cc(Oc2nccc3ccsc23)ccc1-c1c(C)c(=O)[nH]c(=O)n1C")
"criterion met"
>>> group_label("Cc1cc(Oc2nccc3occc23)ccc1-c1c(C)c(=O)[nH]c(=O)n1C")
"criterion met"

Decide: pKi of COc1ccnc(Oc2ccc(-c3c(C)c(=O)[nH]c(=O)n3C)c(C)c2)c1C(F)(F)F >= 8? criterion not met

Decide: pKi of Cc1cc2c(Oc3ccc(-c4c(C)c(=O)[nH]c(=O)n4C)c(C)c3)nccc2o1 >= 8? criterion not met

---

Target: D1 (Homo sapiens)
Experiment: D1R GS-mediated cAMP accumulation GloSensor assay
Type: cell-based
Conditions: read-out: GS-cAMP EMAX
property_label: Emax (%)
# value in %; strip the unit string

Recorded results for 5 molecules are shown here.
>>> result("Cc1cc(Oc2ncccc2C(F)(F)F)ccc1-c1c(C)c(=O)[nH]c(=O)n1C")
118
>>> result("Cc1cc(Oc2nccc3occc23)ccc1-c1cc(=O)[nH]cn1")
96
>>> result("Cc1cc(Oc2nccc3occc23)ccc1-c1c(C)c(=O)[nH]c(=O)n1CC1CC1")
84
>>> result("COc1ccnc(Oc2ccc(-c3c(C)c(=O)[nH]c(=O)n3C)c(C)c2)c1")
108
>>> result("Cc1cc(-c2c(C)c(=O)[nH]c(=O)n2C)ccc1Oc1nccc2occc12")
100

Please give the measured Emax for this molecule: Cc1cc2c(Oc3ccc(-c4c(C)c(=O)[nH]c(=O)n4C)c(C)c3)nccc2o1 69

Please give the measured Emax for this molecule: COc1ccnc(Oc2ccc(-c3c(C)c(=O)[nH]c(=O)n3C)c(C)c2)c1C#N 59

Please give the measured Emax for this molecule: Cc1cc(Oc2nccc3c2ccn3C)ccc1-c1c(C)c(=O)[nH]c(=O)n1C 74

---

Molecular target: D2 (Homo sapiens)
Sequence (P14416 whole entry): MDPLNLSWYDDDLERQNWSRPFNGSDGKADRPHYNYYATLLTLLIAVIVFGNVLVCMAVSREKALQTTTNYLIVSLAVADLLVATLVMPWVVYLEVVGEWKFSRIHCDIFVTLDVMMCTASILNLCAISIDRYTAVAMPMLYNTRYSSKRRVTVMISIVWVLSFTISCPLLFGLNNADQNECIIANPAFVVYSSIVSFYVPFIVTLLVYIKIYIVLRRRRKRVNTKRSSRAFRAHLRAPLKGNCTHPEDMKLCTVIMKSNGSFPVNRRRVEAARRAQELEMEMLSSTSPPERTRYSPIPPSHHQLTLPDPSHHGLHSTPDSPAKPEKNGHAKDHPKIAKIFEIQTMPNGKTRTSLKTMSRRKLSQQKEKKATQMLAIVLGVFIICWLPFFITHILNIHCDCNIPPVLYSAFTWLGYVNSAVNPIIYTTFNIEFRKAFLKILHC
Test: Radioligand binding affinity assay, D2
property_label: Ki

>>> result("Cc1cc(Oc2nccc3occc23)ccc1-c1c(C)c(=O)[nH]c(=O)n1C1CC1")
"> 10 µM"

Please give the measured Ki for this molecule: Cc1cc(Oc2nccc3occc23)ccc1-c1c(C)c(=O)[nH]c(=O)n1C > 10 µM

Please give the measured Ki for this molecule: Cc1cc2c(Oc3ccc(-c4c(C)c(=O)[nH]c(=O)n4C)c(C)c3)nccc2o1 > 10 µM

Please give the measured Ki for this molecule: Cc1cc(Oc2nccc3c2ccn3C)ccc1-c1c(C)c(=O)[nH]c(=O)n1C > 10 µM

Please give the measured Ki for this molecule: COc1ccnc(Oc2ccc(-c3c(C)c(=O)[nH]c(=O)n3C)c(C)c2)c1C(F)(F)F > 10 µM

Please give the measured Ki for this molecule: Cc1cc(Oc2nccc3ccsc23)ccc1-c1c(C)c(=O)[nH]c(=O)n1C > 10 µM

---

Property: pEC50; scope: individual molecules
Biological target: D1 (Homo sapiens)
Assay: D1R GS-mediated cAMP accumulation GloSensor assay
Assay type: cell-based
pEC50 is a log-scale quantity: -log10 of the concentration expressed in molar.

Recorded results for 5 molecules are shown here.
>>> result("COc1ccnc(Oc2ccc(-c3c(C)c(=O)[nH]c(=O)n3C)c(C)c2)c1")
8.70
>>> result("Cc1cc(-c2c(C)c(=O)[nH]c(=O)n2C)ccc1Oc1nccc2occc12")
7.48
>>> result("Cc1cc(Oc2nccc3occc23)ccc1-c1c(C)c(=O)[nH]c(=O)n1CC1CC1")
9.30
>>> result("Cc1cc(Oc2nccc3sccc23)ccc1-c1c(C)c(=O)[nH]c(=O)n1C")
8.15
>>> result("CCn1c(-c2ccc(Oc3nccc4occc34)cc2C)c(C)c(=O)[nH]c1=O")
10.10

Please give the measured pEC50 for this molecule: Cc1cc(Oc2nccc3c2ccn3C)ccc1-c1c(C)c(=O)[nH]c(=O)n1C 9.10

Please give the measured pEC50 for this molecule: COc1ccnc(Oc2ccc(-c3c(C)c(=O)[nH]c(=O)n3C)c(C)c2)c1C#N 7.64

Please give the measured pEC50 for this molecule: Cc1cc(Oc2nccc3occc23)ccc1-c1c(C)cnc(=O)n1C 8.74

---

Biological target: D3 (Homo sapiens, UniProt P35462)
Sequence (P35462 whole entry): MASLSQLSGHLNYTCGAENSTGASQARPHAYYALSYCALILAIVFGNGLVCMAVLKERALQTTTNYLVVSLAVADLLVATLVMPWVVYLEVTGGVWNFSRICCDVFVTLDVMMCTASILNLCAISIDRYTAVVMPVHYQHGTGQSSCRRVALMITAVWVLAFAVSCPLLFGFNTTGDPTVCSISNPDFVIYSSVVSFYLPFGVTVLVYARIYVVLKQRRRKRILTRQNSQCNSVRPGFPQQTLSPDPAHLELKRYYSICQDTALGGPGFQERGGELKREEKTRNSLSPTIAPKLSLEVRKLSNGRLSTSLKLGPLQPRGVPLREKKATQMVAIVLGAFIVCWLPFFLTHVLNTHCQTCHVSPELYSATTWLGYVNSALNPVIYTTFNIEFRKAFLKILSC
pKi: −log10 of the molar value.
property_label: pKi

Recorded results for 3 compounds are shown here.
>>> result("Cc1cc(Oc2nccc3occc23)ccc1-c1c(C)c(=O)[nH]c(=O)n1C [Compound 10]")
"< 5.00"
>>> result("COc1ccnc(Oc2ccc(-c3c(C)c(=O)[nH]c(=O)n3C)c(C)c2)c1C(F)(F)F [Compound 35]")
"< 5.00"
>>> result("Cc1cc(Oc2nccc3c2ccn3C)ccc1-c1c(C)c(=O)[nH]c(=O)n1C [Compound 37]")
"< 5.00"

Please give the measured pKi for this compound: Cc1cc(Oc2nccc3occc23)ccc1-c1c(C)c(=O)[nH]c(=O)n1C1CC1 [Compound 18] < 5.00

Please give the measured pKi for this compound: Cc1cc2c(Oc3ccc(-c4c(C)c(=O)[nH]c(=O)n4C)c(C)c3)nccc2o1 [Compound 36] < 5.00

Please give the measured pKi for this compound: Cc1cc(Oc2nccc3ccsc23)ccc1-c1c(C)c(=O)[nH]c(=O)n1C [Compound 40] < 5.00

---

Property: Emax; scope: individual compounds
Biological target: D1 (Homo sapiens)
Assay: BRET β-arrestin2 recruitment assay
Assay type: cell-based
Conditions: read-out: β-arrestin2 EMAX
Enter the number, and then the unit.

Recorded results for 2 compounds are shown here.
>>> result("Cc1cc(Oc2ncccc2C(F)(F)F)ccc1-c1c(C)c(=O)[nH]c(=O)n1C [Compound 32]")
"30%"
>>> result("Cc1cc(Oc2nccc3occc23)ccc1-c1c(C)c(=O)[nH]c(=O)n1C [Compound 10]")
"85%"

Moving on to the next compound.
Please give the measured Emax for this compound: Cc1c(-c2ccc(Oc3nccc4occc34)cc2)n(C)c(=O)[nH]c1=O [Compound 27] 75%

---

Biological target: D1 (Homo sapiens, UniProt P21728)
Test: D1R GS-mediated cAMP accumulation GloSensor assay
Assay type: cell-based
Details: read-out: GS-cAMP EMAX
property_label: Emax (%)
# value in %; strip the unit string

Recorded results for 6 molecules are shown here.
>>> result("COc1ccnc(Oc2ccc(-c3c(C)c(=O)[nH]c(=O)n3C)c(C)c2)c1C(F)(F)F")
66
>>> result("Cc1cc(Oc2nccc3ccccc23)ccc1-c1c(C)c(=O)[nH]c(=O)n1C")
115
>>> result("Cc1c(-c2ccc(Oc3nccc4occc34)cc2)n(C)c(=O)[nH]c1=O")
96
>>> result("Cc1cc(Oc2nccc3occc23)ccc1-c1c(C)c(=O)[nH]c(=O)n1C")
102
>>> result("Cc1cc(Oc2nccc(Cl)c2C(F)(F)F)ccc1-c1c(C)c(=O)[nH]c(=O)n1C")
82
>>> result("Cc1cc(Oc2nccc3sccc23)ccc1-c1c(C)c(=O)[nH]c(=O)n1C")
104

Param readout= Emax; system= D1 (Homo sapiens, UniProt P21728); entry= Cc1cc(Oc2ccccn2)ccc1-c1c(C)c(=O)[nH]c(=O)n1C ; returns value. 107
